Test system: MDA-MB-231
Test: cells
Conditions: Homo sapiens, MDA-MB-231, 48 h
Description: Antiproliferative activity against human MDA-MB-231 cells after 48 hrs by MTT assay
experimental_endpoint: IC50 (nM)

Some compounds with recorded IC50:
1. COc1ccc(/C=C\c2cc(OC)c(OC)c(OC)c2)cc1O; 12
2. COc1ccc(C(=O)c2ccc(Br)cc2)cc1O; 2110

A. O=S(=O)(c1ccccc1)c1no[n+]([O-])c1S(=O)(=O)c1ccccc1
B. COc1ccc(C(=O)c2ccc3ccccc3c2)cc1O
C. COc1ccc(C(=O)c2cc(OC)c(OC)c(OC)c2)cc1O
D. COc1ccc(C(=O)c2ccc(Cl)cc2)cc1O
Ordering criterion: IC50; begin with the maximum. Your answer should be the labels, listed in the requested order.
D, A, B, C
(D: 4180 nM, A: 1870 nM, B: 120 nM, C: 51 nM)

* * *

Test system: A549
Experiment: cells
Conditions: Homo sapiens, A549, 48 h
experimental_endpoint: IC50 (µM)

Some compounds with recorded IC50:
1) COc1ccc(/C=C\c2cc(OC)c(OC)c(OC)c2)cc1O; 0.006
2) COc1ccc(C(=O)c2ccc(Br)cc2)cc1O; 224

A. O=S(=O)(c1ccccc1)c1no[n+]([O-])c1S(=O)(=O)c1ccccc1
B. COc1ccc(C(=O)c2ccc(Cl)cc2)cc1O
C. COc1ccc(C(=O)c2cc(OC)c(OC)c(OC)c2)cc1O
D. COc1ccc(C(=O)c2ccc3ccccc3c2)cc1O
Ordering criterion: IC50; begin with the maximum. Your answer should be the labels, listed in the requested order.
A, D, C, B
(A: 235 µM, D: 34 µM, C: 21 µM, B: 6.64 µM)

Just for reference, ChEMBL document CHEMBL5154707 is where these values come from.
